tested on: Plasmodium falciparum; experiment: Antiplasmodial activity against chloroquine-resistant Plasmodium falciparum K1 infected in human erythrocytes measured after 72 hrs Malstat/NBT reagent based assay; format: functional, organism-based; details: K1, 72 h
Entries and their IC50

{"test smiles": "CCCCCCCCCCCCCCCCOCCCOP(=O)(O)CCCC(=O)N(C)O", "unit info": "nM", "IC50": 950}
{"test smiles": "CN(O)C(=O)CCCP(=O)(OCOC(=O)C(C)(C)C)OCOC(=O)C(C)(C)C", "unit info": "nM", "IC50": 730}
{"test smiles": "CN(O)C(=O)CCCP(=O)(OCc1ccc(OC(=O)c2ccccc2)cc1)OCc1ccc(OC(=O)c2ccccc2)cc1", "unit info": "nM", "IC50": 30}

###

Entries and their selectivity ratio
experiment: Selectivity index, ratio of IC50 for human MRC5 cells to IC50 for chloroquine-resistant Plasmodium falciparum K1 infected in human erythrocytes; type: toxicity, cell-based; conditions: read-out: Ratio IC50

{"test smiles": "CC(C)C(=O)Oc1ccc(COP(=O)(CCCC(=O)N(C)O)OCc2ccc(OC(=O)C(C)C)cc2)cc1", "result qualifier": "=", "selectivity ratio": 7.3}
{"test smiles": "CCCCCCCCC(=O)Oc1ccc(COP(=O)(CCCC(=O)N(C)O)OCc2ccc(OC(=O)CCCCCCCC)cc2)cc1", "result qualifier": "=", "selectivity ratio": 42}
{"test smiles": "CN(O)C(=O)CCCP(=O)(OCc1ccc(OC(=O)C(C)(C)C)cc1)OCc1ccc(OC(=O)C(C)(C)C)cc1", "result qualifier": "=", "selectivity ratio": 6.1}
{"test smiles": "CCCCCCCCCCCCOCCCOP(=O)(O)CCCC(=O)N(C)O", "result qualifier": "=", "selectivity ratio": 68}
{"test smiles": "CC(C)OC(=O)OCOP(=O)(CCCC(=O)N(C)O)OCOC(=O)OC(C)C", "result qualifier": "=", "selectivity ratio": 743}
{"test smiles": "CN(O)C(=O)CCCP(=O)(OCc1ccc(OC(=O)c2ccccc2)cc1)OCc1ccc(OC(=O)c2ccccc2)cc1", "result qualifier": "=", "selectivity ratio": 20}
{"test smiles": "CN(O)C(=O)CCCP(=O)(OCOC(=O)C(C)(C)C)OCOC(=O)C(C)(C)C", "result qualifier": ">", "selectivity ratio": 88}
{"test smiles": "CCCCCCCCCCCCCCCCOCCCOP(=O)(O)CCCC(=O)N(C)O", "result qualifier": "=", "selectivity ratio": 26}
{"test smiles": "CC(=O)Oc1ccc(COP(=O)(CCCC(=O)N(C)O)OCc2ccc(OC(C)=O)cc2)cc1", "result qualifier": "=", "selectivity ratio": 32}

###

assay: Stability in human serum at 1 mM after 30 to 60 mins by UPLC method; assay type: ADME, cell-free; conditions: 1000 µM

{"test smiles": "CC(=O)Oc1ccc(COP(=O)(CCCC(=O)N(C)O)OCc2ccc(OC(C)=O)cc2)cc1", "Stability": "Stable"}
{"test smiles": "CC(C)C(=O)Oc1ccc(COP(=O)(CCCC(=O)N(C)O)OCc2ccc(OC(=O)C(C)C)cc2)cc1", "Stability": "Stable"}
{"test smiles": "CC(C)OC(=O)OCOP(=O)(CCCC(=O)N(C)O)OCOC(=O)OC(C)C", "Stability": "Stable"}

###

assay: Selectivity index, ratio of IC50 for human MRC5 cells to IC50 for chloroquine-resistant Plasmodium falciparum K1 infected in human erythrocytes; assay type: toxicity, cell-based; settings: read-out: Ratio IC50
Entries and their selectivity ratio

{"test smiles": "CCCCCCCCCCCCCCCCOCCCOP(=O)(CCCC(=O)N(C)O)OCCCOCCCCCCCCCCCCCCCC", "selectivity ratio": "> 1.5"}
{"test smiles": "CCCCOCCCOP(=O)(O)CCCC(=O)N(C)O", "selectivity ratio": "> 4"}
{"test smiles": "CCCCCCCCOCCCOP(=O)(O)CCCC(=O)N(C)O", "selectivity ratio": "> 34"}
